Assign growth to each entry below.
Test system: RXF 393 renal
Assay: NCI-60 one-dose screen, 48 h (100 = growth as untreated, 0 = no growth, -100 = all killed)
Conditions: 10 µM unless noted
Compounds without any hit were thinned out: in the full panel of roughly 83,000, 20% have a hit. Activity calls are given as the source filed them. Rule for the calls: active = growth percent below 10; inactive = the rest.

GET /value?item= SCc1ccc(CS)cc1 &field=growth returns 112% (inactive)

Documented growth of CCSc1ccc([C@@H]2[C@@H](N)C(=O)N2c2cc(OC)c(OC)c(OC)c2)cc1 : -17% (active)

Note to self: growth recorded for Cc1cc(Cl)c2ccc(N(C)C)cc2n1 was 95.5% (inactive)

Memo: CC(=O)OC1Oc2ccccc2-c2oc3nc(=N)n(C)c-3cc21 (stereo not given) , reported growth: 144% (inactive)

Sure, the documented growth for CCN(CC)C(Cl)=Nc1ccc(Cl)cc1 is 107% (inactive)

growth in this record for COc1ccc(NC(=O)C2c3ccccc3C(=O)N(CC(C)C)C2c2cccs2)cc1 (stereo not given) : 79.2% (inactive)

What the record says about O=C(NCCNC(=O)c1cc(S(=O)(=O)NCCc2ccccc2)c(O)c(O)c1O)c1cc(S(=O)(=O)NCCc2ccccc2)c(O)c(O)c1O : growth is 78.1% (inactive)

growth reported for this compound Cc1n(Cc2ccc3ccccc3n2)cc[n+]1Cc1ccc2ccccc2n1 : 86.8% (inactive)

growth reading for CN1CCN(Cc2ccc(NC(=O)c3cncc(C#Cc4ccc(N)nc4)c3)cc2C(F)(F)F)CC1 : -6.03% (active)

// sample CCCCCCCCCCCCCCCCS(=O)(=O)Nc1cc(C(=O)NN)cc(C(=O)NN)c1 , its growth was 94.3% (inactive)

----------
Test system: OVCAR-4 ovarian
Assay: NCI-60 one-dose screen, 48 h (100 = growth as untreated, 0 = no growth, -100 = all killed)
Conditions: 10 µM unless noted
Compounds without any hit were thinned out: in the full panel of roughly 83,000, 20% have a hit. Active and inactive are the calls of the source. How the source made its calls: active means growth percent below 10; inactive means the rest.
Give growth for every item shown.

growth in this record for COCCn1c(Nc2ccc(C(=O)NO)cc2)nc2ccccc21 : 72.2% (inactive)

Briefly, growth measured for CCSc1ccc([C@@H]2[C@@H](N)C(=O)N2c2cc(OC)c(OC)c(OC)c2)cc1 : 54.4% (inactive)

In plain terms, COC(=O)/C=C/c1cc(OC(C)=O)c2c(c1)[C@@H](C(=O)OC)[C@H](c1ccc(OC(C)=O)c(OC(C)=O)c1)O2 has a documented growth of 30.4% (inactive)

Record CC(C)NC(=O)OCC#CCOC(=O)NC(C)C , field growth: 121% (inactive)

Quick note, growth for Oc1ccc(Cl)cc1-c1cc(-c2ccccc2Cl)[nH]n1 landed at 13.3% (inactive)

growth in this record for CCN(CC)c1ccc(C(=N)c2ccc(N(C)C)cc2)cc1 : 21.4% (inactive)

GET /value?item= CCCCCNCCCCCNc1cc(OC)cc2cccnc12 &field=growth returns 37.1% (inactive)

The compound listed as Cc1nc([C@H]2CC[C@H]3[C@@H]4CCC5=CC(=O)CC[C@]5(C)[C@H]4CC[C@]23C)cs1 shows growth equal to 27.4% (inactive)

# compound CCc1ccc(-c2ccc(NC3CCCCCC3)nn2)cc1S(N)(=O)=O ; its growth = 102% (inactive)

Notebook: COc1cc2c(cc1OCCCOc1cc3c(cc1OC)C(=O)N1CCC[C@H]1C=N3)C=CC(C)(C)O2 , growth read as 110% (inactive)

Input F . Output growth: 76.2% [6.87 mM] (inactive)

----------
System: SK-OV-3 ovarian
Experiment: NCI-60 one-dose screen, 48 h
Conditions: 10 µM unless noted
About 83,000 compounds went through this panel and 20% of them were active in at least one assay; those are over-represented in the sample as a whole. The source made the active and inactive calls. Rule for the calls: active = growth percent below 10; inactive = the rest.
Permitted responses: TRUE for active, FALSE for inactive

Write down the call the test reported for this compound. Item: CC(=O)O[C@H]1[C@H](CC#CC#CC[C@@H]2C[C@]3(C)[C@H]4CC=C5[C@H]6[C@@H](C)[C@H](C)CC[C@]6(C(=O)NCCCCCCCCN)CC[C@@]5(C)[C@]4(C)CC[C@H]3C(C)(C)[C@H]2OC(C)=O)C[C@]2(C)[C@H]3CC=C4[C@H]5[C@@H](C)[C@H](C)CC[C@]5(C(=O)NCCCCCCCCN)CC[C@@]4(C)[C@]3(C)CC[C@H]2C1(C)C
FALSE

Hi team, can someone confirm the assay call for CSC(=S)N/N=C(\C)c1ccccn1 ?
FALSE

// return assay outcome for CCOC(=O)C(=CNc1ccccc1Cl)C(=O)OCC
FALSE

Dear colleague, could you share the recorded outcome for C=CCOc1c(Br)cc(Br)cc1Br when you have a moment?
FALSE

For this compound, state the assay outcome: COc1ccc(/C=C2\CCCC3=C2N=C2SC(C)=NN2C3c2ccc(OC)c(OC)c2)cc1OC (stereo not drawn)
FALSE

Just curious, what result did CCOC(=O)c1c(NC(=O)c2ccccc2)sc2c(O)c(CN(CC)CC)ccc12 get here?
TRUE

Returns: the outcome recorded for O=C(CN1CCN(c2ccccc2)CC1)N1CCN(c2nnc(-c3ccc(Cl)cc3)c(-c3ccc(Cl)cc3)n2)CC1 in this assay.
FALSE

For this compound, state the assay outcome: Fc1[nH]nc2ccc([C@@H]3Nc4ccc5[nH]ncc5c4[C@H]4C5CCC(C5)[C@@H]34)cc12 (stereo partly drawn)
FALSE

How did this test come out for Cc1ccc(CSCc2ccc(C(=O)NC3CC3)o2)cc1 ?
FALSE

Hi team, can someone confirm the assay call for O=c1cc(N2CCOCC2)oc2c(-c3ccc4c(c3)OCCO4)csc12 ?
TRUE

What did the test return for COc1cc2c(cc1OC)C(=O)C(Br)CC2 (stereo not drawn) ?
FALSE

Test call for this compound, please: CCOC(=O)c1ccc(NC(=O)NC2=NCCS2)cc1
FALSE

# outcome recorded in this test, key = C[C@]12CCc3nc(Nc4ccc(O)cc4)sc3C1=CC[C@@H]1[C@@H]2CC[C@]2(C)/C(=N/NC(N)=S)CC[C@@H]12
TRUE

What is the recorded call for this compound in the test? Cc1ccc(NC(=O)c2[nH]c(SCCN(C)C)nc2-c2ccc(F)cc2)cc1C#Cc1cnc2cccnn12
FALSE

Per the assay record, what outcome was assigned to O=C(CS)OCC(COC(=O)CS)(COC(=O)CS)COC(=O)CS ?
FALSE

Dear all, I need the recorded test outcome for COc1cc(C2C=C(C)N=C3SC=NN32)cc(OC)c1OC (stereo not drawn) , thank you.
FALSE

So what was the verdict on CS(=O)(=O)Nc1cc(-c2cc3ncc(C#N)c(Nc4ccc(Oc5ccccc5)c(Cl)c4)c3s2)cnc1Cl in this test?
FALSE

Hi, sorry to bother you, what did the test record for Oc1ccc(-c2cnc(-c3ccccc3)[nH]2)c(O)c1 ?
FALSE

Which outcome was entered for the compound COc1cc2nccc(Oc3ccc(NC(=O)C4(C(=O)Nc5ccc(F)cc5)CC4)cc3)c2cc1OC(=O)c1ccc(N)cc1 in this test?
FALSE

Recorded test call requested for COC(=O)c1cc(Cl)cc([N+](=O)[O-])c1O
FALSE

I would be grateful if you could indicate the recorded call for O=c1[nH]cnc2nc[nH]c12 .
FALSE

Called result for COc1ccc(-c2cn(-c3cccc(C(=O)/C=C/c4ccc(O)c(OC)c4)c3)c(=O)[nH]2)cc1
FALSE

Name the outcome recorded for CN(C)c1ccc(N2Cc3ccccc3OC3=C2C(=O)c2c(O)ccc(O)c2C3=O)cn1 in the assay.
TRUE

Could you kindly confirm the outcome this assay logged for CC(=O)[C@@]1(O)[C@H](C)C[C@H]2[C@@H]3C=C(C)C4=Cc5c(cnn5-c5ccccc5)C[C@]4(C)[C@H]3[C@@H](O)C[C@@]21C ?
FALSE

Test call for this compound, please: Cc1ccc(/C=C/C(=N/N=C(N)N)c2ccccc2)cc1
TRUE

Hi, do you know how COc1ccc(NC(=O)c2ccc(C(F)(F)F)nc2Nc2ccc(Cl)cc2C)cc1Cl came out in this test?
FALSE

Identify the outcome logged in this assay for the compound shown: Fc1ccc(-c2ccnc3nc(-c4ccncc4)nn23)cc1
FALSE

Please state the recorded outcome for this compound: C=CCn1c(SCC(=O)Nc2ccc(C(=O)/C=C/c3ccc(Cl)cc3)cc2)nnc1-c1ccc(Cl)cc1
FALSE

// outcome(item) with item = CNC(=O)c1cc(Oc2ccc(NC(=O)c3nc(S(C)(=O)=O)sc3-c3ccc(F)cc3)cc2)ccn1
FALSE

Kindly provide the recorded test outcome for the following compound: CCN(CC)CCC(CNc1ccnc2cc(Cl)ccc12)c1ccc(O)cc1 (stereo not drawn)
FALSE

Dear colleague, could you share the recorded outcome for O=C(Nc1ccc(Oc2ccc(Nc3nc4ccccc4s3)cc2)cc1)Nc1ccc(Cl)c(C(F)(F)F)c1 when you have a moment?
FALSE

Recorded call for COc1ccc2[nH]c(C(=O)OCc3ccc4c(Br)cc(Br)c(O)c4n3)cc2c1 ?
FALSE

GET /call?item= Cc1nc2ccc(Nc3nc(Cl)nc(N4CCOCC4)n3)cc2n1Cc1ccccc1 returns the recorded outcome of this test.
FALSE

Please share the test call associated with O=C1C(Cl)=C(N/N=c2/[nH][nH]/c(=N/NC3=C(Cl)C(=O)c4ccccc4C3=O)c3ccccc23)C(=O)c2ccccc21 .
FALSE

Could you kindly confirm the outcome this assay logged for Nc1nonc1-c1nc2ccccc2n1Cc1ccc(F)cc1 ?
FALSE

For CCCCCCCCCCCCCCCCS(=O)(=O)Nc1cc(C(=O)NN)cc(C(=O)NN)c1 , what call appears in the results of this test?
FALSE

Kindly provide the recorded test outcome for the following compound: CCCc1n(Cc2ccc3ccccc3n2)cc[n+]1Cc1ccc2ccccc2n1
FALSE

Recorded call for CCN(CC)CCNc1c(C)cc(CO)c(Cl)c1C ?
FALSE
